Quick record of pIC50 values for human VMAT2 (Homo sapiens).
Keep it numeric: pIC50 is minus log10 of the concentration in mol/L.

Worked set:
| compound | pIC50 |
| --- | --- |
| CN[C@@H](C)Cc1ccccc1 [methamphetamine, reference compound] | 5.62 |
| COC(=O)C(c1ccccc1)C1CCCCN1 (stereo not drawn) [methylphenidate, reference compound] | 4.03 |

Would you kindly look at the next entry?
Prompt line: Please report pIC50 for the following compound: C[n+]1ccc(-c2cc[n+](C)cc2)cc1 [paraquat]
Response line: 4.91
